tested system: EGFR mutant (T790M) (Homo sapiens, UniProt P00533, T790M)
Sequence (P00533 25-1210 T790M): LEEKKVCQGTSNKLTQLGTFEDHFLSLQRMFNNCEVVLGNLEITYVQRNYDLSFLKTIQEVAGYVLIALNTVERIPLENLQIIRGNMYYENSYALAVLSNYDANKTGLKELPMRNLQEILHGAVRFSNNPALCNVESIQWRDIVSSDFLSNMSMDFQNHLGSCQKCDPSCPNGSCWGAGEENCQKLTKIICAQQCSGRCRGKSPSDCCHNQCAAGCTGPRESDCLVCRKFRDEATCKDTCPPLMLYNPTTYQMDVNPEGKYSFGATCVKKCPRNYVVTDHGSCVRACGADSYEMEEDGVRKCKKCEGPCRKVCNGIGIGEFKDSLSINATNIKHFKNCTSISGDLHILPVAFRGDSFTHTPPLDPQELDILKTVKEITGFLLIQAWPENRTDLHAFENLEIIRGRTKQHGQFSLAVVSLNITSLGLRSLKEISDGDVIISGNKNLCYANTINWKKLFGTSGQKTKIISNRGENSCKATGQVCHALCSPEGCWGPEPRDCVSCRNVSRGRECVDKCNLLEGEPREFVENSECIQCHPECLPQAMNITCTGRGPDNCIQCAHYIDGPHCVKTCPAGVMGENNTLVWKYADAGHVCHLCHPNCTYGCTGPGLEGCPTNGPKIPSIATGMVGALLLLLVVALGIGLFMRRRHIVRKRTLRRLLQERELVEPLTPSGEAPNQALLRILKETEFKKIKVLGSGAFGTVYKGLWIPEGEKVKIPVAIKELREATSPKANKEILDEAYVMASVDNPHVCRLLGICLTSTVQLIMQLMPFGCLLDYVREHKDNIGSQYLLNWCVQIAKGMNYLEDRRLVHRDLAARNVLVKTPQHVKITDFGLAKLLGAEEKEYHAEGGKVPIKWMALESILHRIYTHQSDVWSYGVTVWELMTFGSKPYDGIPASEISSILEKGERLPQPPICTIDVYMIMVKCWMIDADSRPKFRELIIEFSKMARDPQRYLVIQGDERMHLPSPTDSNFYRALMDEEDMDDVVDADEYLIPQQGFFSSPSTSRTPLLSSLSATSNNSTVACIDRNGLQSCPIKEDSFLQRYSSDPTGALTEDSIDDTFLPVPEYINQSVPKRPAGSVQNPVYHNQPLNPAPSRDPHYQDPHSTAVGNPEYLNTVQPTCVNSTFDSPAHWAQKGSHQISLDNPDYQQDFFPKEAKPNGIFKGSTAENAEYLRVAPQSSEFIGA
protocol summary: EGFR enzyme inhibition assay (mutant T790M), Kinase-Glo kit
Procedure: Supporting Information (SI) Formazan crystals were dissolved response curves by nonlinear regression. performed in 96 -well plates containing purified recombinant EGFR. Each we ll received 25 µL of control). […] The reaction was initiated After incubation, 50 µL of min. Luminescence was then recorded using a microplate ELISA reader. Erlotinib served as t he incubated for 5 min at room temperature.
pIC50: −log10 of the molar value.
property: pIC50

compound="O=C(O)c1ccccc1C(=O)N1N=C(c2ccc([N+](=O)[O-])cc2)CC1c1cccs1 (stereo not drawn)" property=pIC50 reported_measurement=3.92
compound="CC(=O)C1C(c2ccc([N+](=O)[O-])cc2)=NN(C=O)C1c1cccs1 (stereo not drawn)" property=pIC50 reported_measurement=4.32
compound="O=[N+]([O-])c1ccc(C2=NNC(c3cccs3)C2)cc1 (stereo not drawn)" property=pIC50 reported_measurement=4.19

---

tested system: VEGFR-2 (Homo sapiens)
Sequence (P35968 789-1356 limits assumed): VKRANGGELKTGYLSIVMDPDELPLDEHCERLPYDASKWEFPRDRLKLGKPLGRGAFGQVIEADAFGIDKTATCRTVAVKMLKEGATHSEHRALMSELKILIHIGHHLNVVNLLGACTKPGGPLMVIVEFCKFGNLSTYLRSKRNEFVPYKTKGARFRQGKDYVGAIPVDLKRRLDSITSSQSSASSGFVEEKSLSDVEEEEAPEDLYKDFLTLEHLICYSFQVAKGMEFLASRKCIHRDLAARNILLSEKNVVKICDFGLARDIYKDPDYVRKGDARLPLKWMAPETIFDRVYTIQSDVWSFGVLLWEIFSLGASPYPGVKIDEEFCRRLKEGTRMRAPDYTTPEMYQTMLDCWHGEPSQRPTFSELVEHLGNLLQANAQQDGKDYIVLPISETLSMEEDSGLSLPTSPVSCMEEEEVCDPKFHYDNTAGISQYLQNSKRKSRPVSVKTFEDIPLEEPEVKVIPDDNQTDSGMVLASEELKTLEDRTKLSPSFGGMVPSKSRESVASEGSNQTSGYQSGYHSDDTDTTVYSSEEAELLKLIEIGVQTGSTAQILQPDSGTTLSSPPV
property: IC50 (µM)

compound="O=C(O)c1ccccc1C(=O)N1N=C(c2ccc([N+](=O)[O-])cc2)CC1c1cccs1 (stereo not shown)" property=IC50 reported_measurement=85.1

---

System: HepG2
protocol summary: MTT cytotoxicity assay, HepG2
test settings: Homo sapiens, HepG2, 24 h, read-out: In vitro Cytotoxicity (IC50, μM) HepG2
property: IC50 (µM)

molecule="COc1cccc2c1C(=O)c1c(O)c3c(c(O)c1C2=O)C[C@@](O)(C(=O)CO)C[C@@H]3O[C@H]1C[C@H](N)[C@H](O)[C@H](C)O1 [Doxorubicin, doxorubicin, reference compound]" units_of_measure=µM reported_measurement=4.5
molecule="O=[N+]([O-])c1ccc(C2=NNC(c3cccs3)C2)cc1 (stereo not drawn) [Compound 2]" units_of_measure=µM reported_measurement=8.86
molecule="O=CN1N=C(c2ccc([N+](=O)[O-])cc2)CC1c1cccs1 (stereo not drawn) [Compound 4]" units_of_measure=µM reported_measurement=84
molecule="COC(=O)/C=C(\\C(=O)OC)N1N=C(c2ccc([N+](=O)[O-])cc2)CC1c1cccs1 (stereo not drawn) [Compound 12]" units_of_measure=µM reported_measurement=59.3
molecule="O=C(O)C=CC(=O)N1N=C(c2ccc([N+](=O)[O-])cc2)CC1c1cccs1 (stereo not drawn) [Compound 10]" units_of_measure=µM reported_measurement=36.4
molecule="O=C(O)c1ccccc1C(=O)N1N=C(c2ccc([N+](=O)[O-])cc2)CC1c1cccs1 (stereo not drawn) [Compound 8]" units_of_measure=µM reported_measurement=13.5
